Reference source for all entries: PubChem BioAssay AID2524

- system_name: Intestinal-type alkaline phosphatase (Homo sapiens) (UniProt P09923)
- Sequence (P09923 whole entry, looked up): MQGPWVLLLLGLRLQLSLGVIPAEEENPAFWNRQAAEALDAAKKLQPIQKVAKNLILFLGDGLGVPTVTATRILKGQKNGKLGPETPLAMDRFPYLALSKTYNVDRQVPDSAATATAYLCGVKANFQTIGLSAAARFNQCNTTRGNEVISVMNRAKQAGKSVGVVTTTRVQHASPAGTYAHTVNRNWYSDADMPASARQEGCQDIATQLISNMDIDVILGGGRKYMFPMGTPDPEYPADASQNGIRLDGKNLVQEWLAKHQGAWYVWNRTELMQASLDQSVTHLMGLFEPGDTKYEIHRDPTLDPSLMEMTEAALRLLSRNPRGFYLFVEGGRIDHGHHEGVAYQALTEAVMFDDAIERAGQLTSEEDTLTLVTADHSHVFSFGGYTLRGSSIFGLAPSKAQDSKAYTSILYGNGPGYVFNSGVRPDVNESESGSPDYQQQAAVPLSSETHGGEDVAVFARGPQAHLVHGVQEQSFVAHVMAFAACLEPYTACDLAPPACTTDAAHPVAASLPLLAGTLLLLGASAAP
- protocol_text: human IAP activators, primary screen, biochemical, luminescence, uHTS (AID 2524)
- experimental_parameters: purified human IAP, CDP-Star luminescence, 30 min; at 10 µM; stronger effect = higher value; 1 = vehicle-only enzyme, 0 = enzyme-free background
Among all 330,000 compounds or so, about 540 (0.16%) were called active. Many of the other results were omitted from the sample, so actives are more common in it than they were.
measure: activation factor
One number for each entry.

1) CN1CCN(CC(O)COCc2ccc3c(c2)OCO3)CC1 (configuration not stated) :: 0.998
2) COc1ccc(/C=N/NC(=O)c2ccncc2)cc1CN1CCCc2ccccc21 :: 1.06
3) Cc1nn(CC2CC2)c(=O)n1N(C)c1ncc(C(F)(F)F)cc1Cl :: 0.985

Would you be so kind as to report activation factor for each listed record?
1. CC(C)n1ncc2c(C(=O)Nc3ccc(CC#N)cc3)cc(C3CC3)nc21
2. Cc1cc2c(cc1C)[n+](C)cn2CC(O)COCC1CC=CCC1 (configuration not stated)
3. COCCN(C(=S)Nc1ccccc1OC)C1CCN(C(C)C)CC1
4. O=C(O)CCC(=O)Nc1ccc(OCC2CCCO2)cc1 (configuration not stated)
5. CCOc1ccc2[nH]c(C(=O)N/N=C/c3cccc(OC)c3OC)cc2c1
6. [2H]C(CCOS(N)(=O)=O)c1ccccc1 (configuration not stated)
7. CC(C)CCn1c(=O)c2c(nc3n2CCCN3Cc2ccccc2)n(C)c1=O
8. CSCCNC(=O)c1ccc2nc(Cc3ccccc3F)oc2c1

1. 0.958
2. 0.897
3. 1.12
4. 0.853
5. 0.924
6. 0.959
7. 0.846
8. 1.11

* * *

- system_name: Intestinal-type alkaline phosphatase (Homo sapiens)
- protocol_text: human IAP activators, primary screen, biochemical, luminescence, uHTS (AID 2524)
- experimental_parameters: purified human IAP, CDP-Star luminescence, 30 min; at 10 µM; stronger effect = higher value; 1 = vehicle-only enzyme, 0 = enzyme-free background
About 540 (0.16%) of roughly 330,000 compounds were called active. What follows is part of a selection rich in actives, with near analogues and random picks from the rest.
measure: activation factor

// known answers, use as guide
1. C#CCOCCOCCOCCNc1nc(N2CCN(C(=O)CCCCCCCCCCNC(=O)[C@H](CCCCN)n3cc(C)nn3)CC2)nc(N2CCN(C(=O)CCCCCCCCCCNC(=O)[C@H](CO)n3cc(CCCSC)nn3)CC2)n1 :: 1.1 (inactive)
2. Cn1cc(S(=O)(=O)N2CCN(c3ccc(F)cc3)CC2)c(=O)n(C)c1=O :: 1.04 (inactive)
3. CCOC(=O)C1=NNC2(c3ccc(Cl)cc3)C(=O)N(c3cc(C)cc(C)c3)C(=O)C12 (stereo unspecified) :: 1.06 (inactive)
4. O=C(CN1CCC(NC(=O)Nc2ccccc2)CC1)Nc1cccc([N+](=O)[O-])c1 :: 0.94 (inactive)
5. COc1ccc(C(=O)NC2CC(C)(C)Cc3c2cnn3-c2ccccc2C)o1 (stereo unspecified) :: 1.38 (inactive)

Next:
Look at this compound and give its reported activation factor. C#CCOCCOCCOCCNc1nc(N2CCN(C(=O)CCCCCCCCCCNC(=O)[C@H]([C@@H](C)CC)n3cc(CCCCN=C(N)N)nn3)CC2)nc(N2CCN(C(=O)CCCCCCCCCCNC(=O)[C@H](CO)n3cc(CCCSC)nn3)CC2)n1 2.98 (active)
